The measured values listed here are drawn from patent US20130295102A1.

molecular target: T1, Human Factor P (human, UniProt P27918 29-469); test: Biacore SPR, captured Factor P
T1 construct: Bought protein (Complement Technology cat# A139) in SET and Biacore; Factor P of human serum in the functional assays; also called FP; human FP
T1 sequence (P27918 29-469 limits assumed): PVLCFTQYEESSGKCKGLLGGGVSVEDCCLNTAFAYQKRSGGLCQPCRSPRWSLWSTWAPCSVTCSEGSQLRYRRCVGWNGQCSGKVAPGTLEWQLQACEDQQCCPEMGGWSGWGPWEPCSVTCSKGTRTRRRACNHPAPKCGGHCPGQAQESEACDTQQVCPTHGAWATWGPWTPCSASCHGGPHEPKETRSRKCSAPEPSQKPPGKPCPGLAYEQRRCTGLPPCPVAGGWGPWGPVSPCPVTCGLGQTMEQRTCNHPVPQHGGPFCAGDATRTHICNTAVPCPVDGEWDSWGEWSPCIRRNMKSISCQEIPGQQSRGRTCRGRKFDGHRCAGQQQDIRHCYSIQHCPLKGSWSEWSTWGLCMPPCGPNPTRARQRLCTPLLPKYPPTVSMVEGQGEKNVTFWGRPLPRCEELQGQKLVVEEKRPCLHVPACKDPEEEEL
READOUT: koff (s⁻¹)
API: value field is a number in s⁻¹; no unit string.

Worked examples follow.
1) NVS965 (Fab, V domains shown, Disulfide-bridged Fab; also called Fab NVS965) VH: EVQLVQSGAEVKKPGSSVKVSCKASGGTFNSYAISWVRQAPGQGLEWMGRIIPIFGTANYAQKFQGRVTITADESTSTAYMELSSLRSEDTAVYYCARHGGYSFDSWGQGTLVTVSS VL: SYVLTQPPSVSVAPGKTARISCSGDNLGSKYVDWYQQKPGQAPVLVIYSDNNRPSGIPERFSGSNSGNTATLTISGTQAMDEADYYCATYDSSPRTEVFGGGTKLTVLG | 4.1e-05
2) NVS965-Q (Fab, V domains shown, NVS965 with heavy chain N30 replaced with glutamine) VH: EVQLVQSGAEVKKPGSSVKVSCKASGGTFQSYAISWVRQAPGQGLEWMGRIIPIFGTANYAQKFQGRVTITADESTSTAYMELSSLRSEDTAVYYCARHGGYSFDSWGQGTLVTVSS VL: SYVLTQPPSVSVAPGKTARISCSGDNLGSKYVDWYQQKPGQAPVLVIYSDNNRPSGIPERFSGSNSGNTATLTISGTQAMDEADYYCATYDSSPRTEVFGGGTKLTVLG | 0.000366
3) NVS966 (Fab, V domains shown, Disulfide-bridged Fab; also called Fab NVS966) VH: EVQLVQSGAEVKKPGESLKISCKGSGYSFTNYWIGWVRQMPGKGLEWMGRIDPGESLTNYAPSFQGQVTISADKSISTAYLQWSSLKASDTAMYYCARTGVADVDMPFAHWGQGTLVTVSS VL: SYVLTQPPSVSVAPGKTARISCSGDNLGSYYVNWYQQKPGQAPVLVIYGDSERPSGIPERFSGSNSGNTATLTISRAQAGDEADYYCGSWDITSFVFGGGTKLTVLG | 0.0003

Recorded result, NVS962-S (Fab, V domains shown, NVS962 with heavy chain N30 replaced with serine) VH: EVQLVQSGAEVKKPGSSVKVSCKASGGTFSSYAISWVRQAPGQGLEWMGRIIPIFGTANYAQKFQGRVTITADESTSTAYMELSSLRSEDTAVYYCARHGGYSFDSWGQGTLVTVSS VL: SYELTQPPSVSVAPGQTARISCSGDNLGSKYVDWYQQKPGQAPVLVIYSDNNRPSGIPERFSGSNSGNTATLTISGTQAEDEADYYCQTYTSGNNYLVFGGGTKLTVLG , koff: 0.000117

NVS962-S31A (Fab, V domains shown, NVS962 with heavy chain serine 31 replaced with alanine) VH: EVQLVQSGAEVKKPGSSVKVSCKASGGTFNAYAISWVRQAPGQGLEWMGRIIPIFGTANYAQKFQGRVTITADESTSTAYMELSSLRSEDTAVYYCARHGGYSFDSWGQGTLVTVSS VL: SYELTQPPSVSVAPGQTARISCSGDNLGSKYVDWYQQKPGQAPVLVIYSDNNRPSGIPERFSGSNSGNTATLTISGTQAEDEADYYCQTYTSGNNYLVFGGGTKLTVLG yielded koff of 0.000113

Looking up NVS963 (Fab, V domains shown, Disulfide-bridged Fab; also called Fab NVS963) VH: EVQLVQSGAEVKKPGSSVKVSCKASGGTFSSYAISWVRQAPGQGLEWMGPINPYYGDAIYAQKFQGRVTITADESTSTAYMELSSLRSEDTAVYYCARYYSDYMDYWGQGTLVTVSS VL: QSVLTQPPSVSGAPGQRVTISCTGSSSNIGAGYDVHWYQQLPGTAPKLLIHDNSHRPSGVPDRFSGSKSGTSASLAITGLQSEDEADYYCASYDESAHSVFGGGTKLTVLG , I found its koff recorded as 0.0001
